I'd be grateful if you could share measured pEC50 for these entries.
biological target: Mu-type opioid receptor (Homo sapiens); assay: Agonist activity at MOR (unknown origin) expressed in HEK cells assessed as reduction in cAMP accumulation by split luciferase assay
Sequence (P35372 whole entry): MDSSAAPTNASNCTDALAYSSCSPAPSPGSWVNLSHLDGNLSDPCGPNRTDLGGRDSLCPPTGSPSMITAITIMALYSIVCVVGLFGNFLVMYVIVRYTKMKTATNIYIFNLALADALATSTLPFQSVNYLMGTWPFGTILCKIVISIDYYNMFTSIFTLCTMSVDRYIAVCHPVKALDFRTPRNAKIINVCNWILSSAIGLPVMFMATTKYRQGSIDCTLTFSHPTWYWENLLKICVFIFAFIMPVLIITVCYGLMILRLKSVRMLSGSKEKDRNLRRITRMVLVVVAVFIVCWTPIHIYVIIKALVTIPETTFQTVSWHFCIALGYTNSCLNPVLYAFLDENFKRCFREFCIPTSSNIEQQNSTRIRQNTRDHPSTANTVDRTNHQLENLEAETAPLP
*1 amine or outer side, *2 acyl side, *3 side chain or, on linkers, in order; H or OH if unused. Where a SMILES comes first, the peptide text is derived from it. Bridges are numbered along the chain shown (N, C = ends). Roman numbers before positions name the chains, in order. [ ]: non-standard residue; d: D form. Piperazine(1,4-diyl) = C1CN([*:2])CCN1[*:1]; Dmt = Cc1cc(O)cc(C)c1C[C@H](N)C(=O)O; Cystamine = C(CSSCCN[*:2])N[*:1]
Give bare numbers, as −log10 of the molar value.

Guide cases for pEC50, answers given:
MOLECULE	TARGET OF ASSAY	pEC50
N[C@@H](Cc1ccc(O)cc1)C(=O)N[C@@H]1CSSC[C@@H](NC(=O)[C@@H](N)Cc2ccc(O)cc2)C(=O)NCC(=O)N[C@@H](Cc2ccccc2)C(=O)N2CCN(CC2)C(=O)[C@H](Cc2ccccc2)NC(=O)CNC1=O (HELM PEPTIDE1{Y.[dC].G.F}|PEPTIDE2{Y.[dC].G.F}|CHEM1{[C1CN([*:2])CCN1[*:1]]}$PEPTIDE1,PEPTIDE2,2:R3-2:R3|PEPTIDE1,CHEM1,4:R2-1:R1|PEPTIDE2,CHEM1,4:R2-1:R2$$$V2.0)	Mu-type opioid receptor (Homo sapiens)	6.29
N[C@@H](Cc1ccc(O)cc1)C(=O)N[C@@H]1CSSC[C@@H](NC(=O)[C@@H](N)Cc2ccc(O)cc2)C(=O)NCC(=O)N[C@@H](Cc2ccccc2)C(=O)NCCSSCCNC(=O)[C@H](Cc2ccccc2)NC(=O)CNC1=O (HELM PEPTIDE1{Y.[dC].G.F}|PEPTIDE2{Y.[dC].G.F}|CHEM1{[C(CSSCCN[*:2])N[*:1]]}$PEPTIDE1,PEPTIDE2,2:R3-2:R3|PEPTIDE1,CHEM1,4:R2-1:R1|PEPTIDE2,CHEM1,4:R2-1:R2$$$V2.0)	Mu-type opioid receptor (Homo sapiens)	7.06
Cc1cc(O)cc(C)c1C[C@H](N)C(=O)N[C@@H]1CSSC[C@@H](NC(=O)[C@@H](N)Cc2c(C)cc(O)cc2C)C(=O)NCC(=O)N[C@@H](Cc2ccccc2)C(=O)N2CCN(CC2)C(=O)[C@H](Cc2ccccc2)NC(=O)CNC1=O (I: H-[Dmt][dC]GF / II: H-[Dmt][dC]GF; disulfide I:2-II:2; linker I:C-II:C via Piperazine(1,4-diyl))	Mu-type opioid receptor (Homo sapiens)	6.95

// moving on: another record for pEC50
Lab entry: Mu-type opioid receptor (Homo sapiens) assay, molecule Cc1cc(O)cc(C)c1C[C@H](N)C(=O)N[C@@H]1CSSC[C@@H](NC(=O)[C@@H](N)Cc2c(C)cc(O)cc2C)C(=O)NCC(=O)N[C@@H](Cc2ccccc2)C(=O)NCCSSCCNC(=O)[C@H](Cc2ccccc2)NC(=O)CNC1=O (I: H-[Dmt][dC]GF / II: H-[Dmt][dC]GF; disulfide I:2-II:2; linker I:C-II:C via Cystamine) , pEC50 = 8.46

----------
target: Delta-type opioid receptor (Homo sapiens, UniProt P41143); assay: Agonist activity at DOR (unknown origin) expressed in HEK cells assessed as reduction in cAMP accumulation by split luciferase assay relative to DADLE; format: functional, cell-based
Sequence (P41143 whole entry): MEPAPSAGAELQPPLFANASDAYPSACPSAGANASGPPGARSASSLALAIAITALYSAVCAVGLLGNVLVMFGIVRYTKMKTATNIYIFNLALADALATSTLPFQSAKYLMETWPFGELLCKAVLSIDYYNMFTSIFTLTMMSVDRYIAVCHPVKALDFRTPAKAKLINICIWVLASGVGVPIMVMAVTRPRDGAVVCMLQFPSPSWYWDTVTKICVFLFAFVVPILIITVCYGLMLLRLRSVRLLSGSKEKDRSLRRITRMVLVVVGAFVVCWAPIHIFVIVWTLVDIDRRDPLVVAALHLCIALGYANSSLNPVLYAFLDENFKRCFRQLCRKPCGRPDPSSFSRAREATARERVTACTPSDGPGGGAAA
Where a SMILES comes first, the peptide text is derived from it.
PROPERTY MEASURED: Emax
Please state the value followed by its unit.

Emax measured on N[C@@H](Cc1ccc(O)cc1)C(=O)N[C@@H]1CSSC[C@@H](NC(=O)[C@@H](N)Cc2ccc(O)cc2)C(=O)NCC(=O)N[C@@H](Cc2ccccc2)C(=O)N2CCN(CC2)C(=O)[C@H](Cc2ccccc2)NC(=O)CNC1=O (HELM PEPTIDE1{Y.[dC].G.F}|PEPTIDE2{Y.[dC].G.F}|CHEM1{[C1CN([*:2])CCN1[*:1]]}$PEPTIDE1,PEPTIDE2,2:R3-2:R3|PEPTIDE1,CHEM1,4:R2-1:R1|PEPTIDE2,CHEM1,4:R2-1:R2$$$V2.0) = 77%

----------
molecular target: Delta-type opioid receptor (Homo sapiens); experiment: Agonist activity at DOR (unknown origin) expressed in HEK cells assessed as reduction in cAMP accumulation by split luciferase assay relative to DADLE; type: functional, cell-based
*1 amine or outer side, *2 acyl side, *3 side chain or, on linkers, in order; H or OH if unused. Where a SMILES comes first, the peptide text is derived from it. Bridges are numbered along the chain shown (N, C = ends). Roman numbers before positions name the chains, in order. [ ]: non-standard residue; d: D form. Piperazine(1,4-diyl) = C1CN([*:2])CCN1[*:1]; Dmt = Cc1cc(O)cc(C)c1C[C@H](N)C(=O)O; Cystamine = C(CSSCCN[*:2])N[*:1]
PROPERTY MEASURED: Emax (%)
One number for each entry, in %.

Guide cases for Emax, answers given:
COMPOUND	TARGET OF ASSAY	Emax / %
N[C@@H](Cc1ccc(O)cc1)C(=O)N[C@@H]1CSSC[C@@H](NC(=O)[C@@H](N)Cc2ccc(O)cc2)C(=O)NCC(=O)N[C@@H](Cc2ccccc2)C(=O)NCCSSCCNC(=O)[C@H](Cc2ccccc2)NC(=O)CNC1=O (HELM PEPTIDE1{Y.[dC].G.F}|PEPTIDE2{Y.[dC].G.F}|CHEM1{[C(CSSCCN[*:2])N[*:1]]}$PEPTIDE1,PEPTIDE2,2:R3-2:R3|PEPTIDE1,CHEM1,4:R2-1:R1|PEPTIDE2,CHEM1,4:R2-1:R2$$$V2.0)	Delta-type opioid receptor (Homo sapiens)	91
CC1(C)SSC(C)(C)[C@H](NC(=O)[C@@H](N)Cc2ccc(O)cc2)C(=O)NCC(=O)N[C@@H](Cc2ccccc2)C(=O)N2CCN(CC2)C(=O)[C@H](Cc2ccccc2)NC(=O)CNC(=O)[C@H]1NC(=O)[C@@H](N)Cc1ccc(O)cc1 (HELM PEPTIDE1{Y.[Pen].G.F}|PEPTIDE2{Y.[Pen].G.F}|CHEM1{[C1CN([*:2])CCN1[*:1]]}$PEPTIDE1,PEPTIDE2,2:R3-2:R3|PEPTIDE1,CHEM1,4:R2-1:R1|PEPTIDE2,CHEM1,4:R2-1:R2$$$V2.0)	Delta-type opioid receptor (Homo sapiens)	206
Cc1cc(O)cc(C)c1C[C@H](N)C(=O)N[C@@H]1CSSC[C@@H](NC(=O)[C@@H](N)Cc2c(C)cc(O)cc2C)C(=O)NCC(=O)N[C@@H](Cc2ccccc2)C(=O)NCCSSCCNC(=O)[C@H](Cc2ccccc2)NC(=O)CNC1=O (I: H-[Dmt][dC]GF / II: H-[Dmt][dC]GF; disulfide I:2-II:2; linker I:C-II:C via Cystamine)	Delta-type opioid receptor (Homo sapiens)	106

// moving on: another record for Emax
Lab entry: Delta-type opioid receptor (Homo sapiens) assay, compound Cc1cc(O)cc(C)c1C[C@H](N)C(=O)N[C@@H]1CSSC[C@@H](NC(=O)[C@@H](N)Cc2c(C)cc(O)cc2C)C(=O)NCC(=O)N[C@@H](Cc2ccccc2)C(=O)N2CCN(CC2)C(=O)[C@H](Cc2ccccc2)NC(=O)CNC1=O (I: H-[Dmt][dC]GF / II: H-[Dmt][dC]GF; disulfide I:2-II:2; linker I:C-II:C via Piperazine(1,4-diyl)) , Emax = 90

----------
molecular target: Kappa-type opioid receptor (Homo sapiens, UniProt P41145); assay: Agonist activity at KOR (unknown origin) expressed in HEK cells assessed as reduction in cAMP accumulation by split luciferase assay relative to salvinorin A; format: functional, cell-based
Sequence (P41145 whole entry): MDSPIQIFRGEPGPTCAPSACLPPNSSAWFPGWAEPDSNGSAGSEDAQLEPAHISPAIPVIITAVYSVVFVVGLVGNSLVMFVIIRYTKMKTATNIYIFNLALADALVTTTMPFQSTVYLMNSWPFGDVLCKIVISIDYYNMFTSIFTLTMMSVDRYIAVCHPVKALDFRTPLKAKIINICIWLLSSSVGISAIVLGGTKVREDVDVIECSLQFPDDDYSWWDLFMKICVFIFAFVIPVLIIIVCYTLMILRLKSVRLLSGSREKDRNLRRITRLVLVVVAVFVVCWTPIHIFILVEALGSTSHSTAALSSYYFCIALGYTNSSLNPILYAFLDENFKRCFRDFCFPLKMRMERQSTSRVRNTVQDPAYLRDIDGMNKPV
*1 amine or outer side, *2 acyl side, *3 side chain or, on linkers, in order; H or OH if unused. Where a SMILES comes first, the peptide text is derived from it. Bridges are numbered along the chain shown (N, C = ends). Roman numbers before positions name the chains, in order. [ ]: non-standard residue; d: D form. Piperazine(1,4-diyl) = C1CN([*:2])CCN1[*:1]; Dmt = Cc1cc(O)cc(C)c1C[C@H](N)C(=O)O; Cystamine = C(CSSCCN[*:2])N[*:1]
PROPERTY MEASURED: Emax (%)
Answers are plain numbers, in %.

COMPOUND	VALUE UNIT	Emax
Cc1cc(O)cc(C)c1C[C@H](N)C(=O)N[C@@H]1CSSC[C@@H](NC(=O)[C@@H](N)Cc2c(C)cc(O)cc2C)C(=O)NCC(=O)N[C@@H](Cc2ccccc2)C(=O)N2CCN(CC2)C(=O)[C@H](Cc2ccccc2)NC(=O)CNC1=O (I: H-[Dmt][dC]GF / II: H-[Dmt][dC]GF; disulfide I:2-II:2; linker I:C-II:C via Piperazine(1,4-diyl))	%	82

// moving on: another record for Emax
Lab entry: Kappa-type opioid receptor (Homo sapiens, UniProt P41145) assay, compound Cc1cc(O)cc(C)c1C[C@H](N)C(=O)N[C@@H]1CSSC[C@@H](NC(=O)[C@@H](N)Cc2c(C)cc(O)cc2C)C(=O)NCC(=O)N[C@@H](Cc2ccccc2)C(=O)NCCSSCCNC(=O)[C@H](Cc2ccccc2)NC(=O)CNC1=O (I: H-[Dmt][dC]GF / II: H-[Dmt][dC]GF; disulfide I:2-II:2; linker I:C-II:C via Cystamine) , Emax = 98
